Molecular target: FGF receptor/BKL complex
Sequence (Q86Z14 whole entry, one chain of several): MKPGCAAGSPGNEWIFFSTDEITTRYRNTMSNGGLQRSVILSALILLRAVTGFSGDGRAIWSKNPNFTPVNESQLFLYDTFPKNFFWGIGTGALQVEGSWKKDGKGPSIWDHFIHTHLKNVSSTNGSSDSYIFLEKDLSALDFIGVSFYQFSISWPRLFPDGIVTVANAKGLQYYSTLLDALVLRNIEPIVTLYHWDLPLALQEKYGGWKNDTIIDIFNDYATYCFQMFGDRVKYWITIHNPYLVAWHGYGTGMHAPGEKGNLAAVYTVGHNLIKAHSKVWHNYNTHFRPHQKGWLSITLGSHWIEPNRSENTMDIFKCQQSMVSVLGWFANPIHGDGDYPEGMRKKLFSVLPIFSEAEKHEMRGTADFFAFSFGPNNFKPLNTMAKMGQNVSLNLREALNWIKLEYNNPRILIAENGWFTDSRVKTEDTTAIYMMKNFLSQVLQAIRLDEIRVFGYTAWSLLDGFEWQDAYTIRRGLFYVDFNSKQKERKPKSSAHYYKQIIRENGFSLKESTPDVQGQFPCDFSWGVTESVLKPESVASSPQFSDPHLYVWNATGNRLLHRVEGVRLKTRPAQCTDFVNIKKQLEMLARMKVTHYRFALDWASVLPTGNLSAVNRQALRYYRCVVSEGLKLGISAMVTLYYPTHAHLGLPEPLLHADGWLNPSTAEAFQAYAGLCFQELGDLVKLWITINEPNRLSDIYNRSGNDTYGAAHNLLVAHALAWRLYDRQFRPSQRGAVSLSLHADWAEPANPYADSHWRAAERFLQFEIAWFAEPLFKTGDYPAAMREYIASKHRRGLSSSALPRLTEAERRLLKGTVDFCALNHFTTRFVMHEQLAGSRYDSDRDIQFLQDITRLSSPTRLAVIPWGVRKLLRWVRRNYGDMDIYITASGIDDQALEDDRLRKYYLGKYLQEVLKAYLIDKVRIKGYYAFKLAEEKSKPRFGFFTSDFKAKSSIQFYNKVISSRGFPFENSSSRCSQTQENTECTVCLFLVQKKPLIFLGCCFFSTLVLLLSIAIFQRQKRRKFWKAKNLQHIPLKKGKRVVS
Assay: FGF receptor potency in an Erk phosphorylation assay in HEK293 overexpressing human BKL
Assay type: cell-based
Conditions: HEK293/BKL cells, pERK after 12 minutes, absence of HSA; read-out: EC50
Below, each entry is listed with its recorded EC50.
measured.attribute: EC50

{"molecule": "(2S)-6-acetamido-2-[[2-[2-[2-[[2-[2-[2-[[(4S)-4-carboxy-4-(16-sulfohexadecanoylamino)butanoyl]amino]ethoxy]ethoxy]acetyl]amino]ethoxy]ethoxy]acetyl]amino]hexadecanoic … (protein) HPIPDSSPLLQFGGQVRQRYLYTDDAQQTEAHLEIREDGTVGGAADQSPESLLQLKALKPGVIQILGVKTSRFLCQRPDGALYGSLHFDPEACSFRELLLEDGYNVYQSEAHGLPLHLPGQKSPHRDPAPRGPARFLPLPGLPPALPEPPGILAPQPPDVGSSDPLSLVGPSQGRSPSYCS", "result": "4.2 nM"}
{"molecule": "S{Beta-179}-[2-[2-[[2-[2-[2-[[2-[2-[2-[[(4S)-4-carboxy-4-(15-carboxypentadecanoyl-amino)butanoyl]amino]ethoxy]ethoxy]acetyl]amino]ethoxy]ethoxy]acetyl]amino]-ethylamino]-2-oxoethyl]-Ala[Gln121,Leu168, … (protein) HPIPDSSPLLQFGGQVRQRYLYTDDAQQTEAHLEIREDGTVGGAADQSPESLLQLKALKPGVIQILGVKTSRFLCQRPDGALYGSLHFDPEACSFRELLLEDGYNVYQSEAHGLPLHLPGQKSPHRDPAPRGPARFLPLPGLPPALPEPPGILAPQPPDVGSSDPLSLVGPSQGRSPSCAS", "result": "107 nM"}
{"molecule": "S{Beta-174}-[2-[2-[[2-[2-[2-[[2-[2-[2-[[(4S)-4-carboxy-4-(13-carboxytridecanoyl-amino)butanoyl]amino]ethoxy]ethoxy]acetyl]amino]ethoxy]ethoxy]acetyl]amino]-ethylamino]-2-oxoethyl]-Ala[Gln121,Leu168,Cy … (protein) HPIPDSSPLLQFGGQVRQRYLYTDDAQQTEAHLEIREDGTVGGAADQSPESLLQLKALKPGVIQILGVKTSRFLCQRPDGALYGSLHFDPEACSFRELLLEDGYNVYQSEAHGLPLHLPGQKSPHRDPAPRGPARFLPLPGLPPALPEPPGILAPQPPDVGSSDPLSLVGPSQCRSPSYAS", "result": "4 nM"}
{"molecule": "S{Beta-180}-[2-[2-[[2-[2-[2-[[2-[2-[2-[[(4S)-4-carboxy-4-(13-carboxytridecanoyl-amino)butanoyl]amino]ethoxy]ethoxy]acetyl]amino]ethoxy]ethoxy]acetyl]amino]-ethylamino]-2-oxoethyl]-Ala[Gln121,Leu168,Cy … (protein) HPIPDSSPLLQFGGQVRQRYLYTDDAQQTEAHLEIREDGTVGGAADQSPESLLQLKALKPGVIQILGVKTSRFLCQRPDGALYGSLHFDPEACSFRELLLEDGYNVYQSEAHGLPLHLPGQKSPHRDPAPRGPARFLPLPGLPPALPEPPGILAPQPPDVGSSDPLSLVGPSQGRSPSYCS", "result": "6 nM"}
